List of DC50 values.
- ASSAYED SYSTEM: PTPN2 (B16F10.4 cells) (Mus musculus, UniProt Q06180)
- Construct: HiBiT; host or cells: B16F10.4
- Sequence (Q06180 whole entry): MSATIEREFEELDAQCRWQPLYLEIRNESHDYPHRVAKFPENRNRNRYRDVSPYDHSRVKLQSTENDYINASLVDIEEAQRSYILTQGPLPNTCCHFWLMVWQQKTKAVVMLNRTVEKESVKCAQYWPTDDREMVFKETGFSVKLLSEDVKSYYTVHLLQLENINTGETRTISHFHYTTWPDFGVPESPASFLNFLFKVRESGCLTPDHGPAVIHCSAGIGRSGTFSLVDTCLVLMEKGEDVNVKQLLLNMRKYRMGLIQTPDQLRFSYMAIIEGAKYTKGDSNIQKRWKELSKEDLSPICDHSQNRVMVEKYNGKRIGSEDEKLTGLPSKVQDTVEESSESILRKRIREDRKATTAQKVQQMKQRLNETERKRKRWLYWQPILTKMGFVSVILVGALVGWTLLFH
- PROTOCOL DESCRIPTION: HiBiT Degradation B16F10.4 PTPN2
- Type: cell-based
- EXPERIMENTAL SETUP: 24.0 hours

Prompt: Any idea what DC50 was measured for CC1(C)C[C@@H](Nc2cccc(-c3sc(C(=O)O)c(OCC(=O)O)c3Cl)c2)CCN1S(=O)(=O)Cc1cccc(NC(=O)COC2CN(C(=O)CNc3cccc4c3CN(C3CCC(=O)NC3=O)C4=O)C2)c1 (some centres unmarked) ?
Response: 0.2 to 1 µM
